Data provenance: the supplement of paper PMC6555819

# Tested on: PPARg homodimer (NR concentration 180 nM)
# measurement-protocol: PBM binding z-score (relative to random genomic background probes); higher = stronger binding; sequences stand for … in GC…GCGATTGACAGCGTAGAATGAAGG
measured-parameter: PBM binding z-score
Give a plain numeric answer without units written out.

Solved cases (5 shown):
{"sequence": "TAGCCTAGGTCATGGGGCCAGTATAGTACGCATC", "PBM binding z-score": 3.22}
{"sequence": "CCTAGCAGGCCAATATGGGTCACTCAAGGCTTGA", "PBM binding z-score": 0.511}
{"sequence": "AATCCAGGGTCACTAGGCCAGAGTAGGTACGAAT", "PBM binding z-score": 2.8}
{"sequence": "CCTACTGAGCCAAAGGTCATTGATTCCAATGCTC", "PBM binding z-score": 5.35}
{"sequence": "CAAACTAGGTCTCCGGAAGGTCAAAGTCCGCATG", "PBM binding z-score": 2.44}

Q: Form field: reported PBM binding z-score of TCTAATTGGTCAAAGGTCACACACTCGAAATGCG
Ans: 12.2

Q: Now consider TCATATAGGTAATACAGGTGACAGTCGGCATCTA and answer again.
Ans: 1.04

Q: Entry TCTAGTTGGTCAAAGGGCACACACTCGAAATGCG please
Ans: 1.73

###

# Test system: PPARg:RXRa 270nM:90nM, anti-RXR (NR concentration 270 nM, RXRa partner concentration 90 nM)
# measurement-protocol: PBM binding z-score (relative to random genomic background probes); higher = stronger binding; sequences stand for … in GC…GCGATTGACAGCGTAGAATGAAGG
measured-parameter: PBM binding z-score
Field format: numeric only.

Completed entries (count: 3):
{"sequence": "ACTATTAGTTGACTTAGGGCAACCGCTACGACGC", "measured-parameter": "PBM binding z-score", "test-value": -0.131}
{"sequence": "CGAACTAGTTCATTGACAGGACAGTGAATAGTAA", "measured-parameter": "PBM binding z-score", "test-value": 0.0577}
{"sequence": "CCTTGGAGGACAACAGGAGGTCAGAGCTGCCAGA", "measured-parameter": "PBM binding z-score", "test-value": 0.64}

Consider the additional sequence presented here.
Q: Quick one: PBM binding z-score of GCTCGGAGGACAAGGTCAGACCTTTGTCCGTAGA ?
Ans: 2.61

###

# System: RARa:RXR (NR concentration 270 nM, RXRa partner concentration 90 nM)
# measurement-protocol: PBM binding z-score (relative to random genomic background probes); higher = stronger binding; sequences stand for … in GC…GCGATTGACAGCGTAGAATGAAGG
Property: PBM binding z-score; scope: individual sequences
Lab note: jot the number down without any unit.

Q: Entry under review: GCAGACAGCTGAAACGCAGGTAACTCAGGGTGGC . Reported PBM binding z-score?
Ans: -0.648

Q: Subsequent entry: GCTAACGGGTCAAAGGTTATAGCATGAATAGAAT
Ans: 7.51

###

# Test system: LXRa homodimer (NR concentration 270 nM)
# measurement-protocol: PBM binding z-score (relative to random genomic background probes); higher = stronger binding; sequences stand for … in GC…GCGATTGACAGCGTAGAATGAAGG
measured-parameter: PBM binding z-score
Please give only the number in your answer, with no unit.

Here is how some sequences turned out for PBM binding z-score.
{"sequence": "AGAACGAGGGCACACTGAGTTGATAGCAGAGTAG", "system-name": "LXRa homodimer (NR concentration 270 nM)", "measured-parameter": "PBM binding z-score", "test-value": -0.135}
{"sequence": "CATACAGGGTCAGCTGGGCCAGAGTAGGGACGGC", "system-name": "LXRa homodimer (NR concentration 270 nM)", "measured-parameter": "PBM binding z-score", "test-value": -0.0929}
{"sequence": "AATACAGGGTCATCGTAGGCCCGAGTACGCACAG", "system-name": "LXRa homodimer (NR concentration 270 nM)", "measured-parameter": "PBM binding z-score", "test-value": 2.32}
{"sequence": "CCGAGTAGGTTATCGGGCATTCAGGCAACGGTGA", "system-name": "LXRa homodimer (NR concentration 270 nM)", "measured-parameter": "PBM binding z-score", "test-value": 0.154}
{"sequence": "GCTATTAGTTGAATGGGCAACCGAATGATTCTCG", "system-name": "LXRa homodimer (NR concentration 270 nM)", "measured-parameter": "PBM binding z-score", "test-value": -0.219}
{"sequence": "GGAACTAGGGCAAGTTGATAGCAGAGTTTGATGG", "system-name": "LXRa homodimer (NR concentration 270 nM)", "measured-parameter": "PBM binding z-score", "test-value": 0.0494}
{"sequence": "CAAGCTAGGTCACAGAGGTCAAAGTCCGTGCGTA", "system-name": "LXRa homodimer (NR concentration 270 nM)", "measured-parameter": "PBM binding z-score", "test-value": 7.42}
{"sequence": "ACTCGGAGGACAAAGGTCGGAGCTACGCCAGTGA", "system-name": "LXRa homodimer (NR concentration 270 nM)", "measured-parameter": "PBM binding z-score", "test-value": -0.439}
{"sequence": "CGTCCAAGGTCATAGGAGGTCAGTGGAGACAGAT", "system-name": "LXRa homodimer (NR concentration 270 nM)", "measured-parameter": "PBM binding z-score", "test-value": 5.5}
{"sequence": "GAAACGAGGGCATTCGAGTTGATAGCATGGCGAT", "system-name": "LXRa homodimer (NR concentration 270 nM)", "measured-parameter": "PBM binding z-score", "test-value": -0.383}

Q: Which value of PBM binding z-score has been reported for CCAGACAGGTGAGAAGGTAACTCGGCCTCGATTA in the records?
Ans: -0.0117

Q: Likewise for TCAGACAGGTGAACGTAACTCAGGTACGCAGTCG ?
Ans: -0.111
